The following compounds are listed with their measured melting point values.
Structures can show the parent of a compound that is named as a salt.

Here are 3 compounds together with their reported answers.
[[record]]
compound = "CSc1nc(C)c(CCN2CC=C(c3c[nH]c4ccc(F)cc34)CC2)c(=O)n1C (as salt: salt)"
readout_value = "229 °C (dec.)"

[[record]]
compound = "Cc1nc2ccccn2c(=O)c1CCN1CC=C(c2c[nH]c3ccccc23)CC1 (as salt: HCl)"
readout_value = "205 °C (dec.)"

[[record]]
compound = "Cc1nc2c(C)cccn2c(=O)c1CCN1CC=C(c2c[nH]c3ccccc23)CC1 (as salt: salt)"
readout_value = "242 to 246 °C"


--- query ---
Please report the recorded melting point for Cc1ncn(C)c(=O)c1CCN1CC=C(c2c[nH]c3ccc(F)cc23)CC1 (as salt: salt) . 234 to 235 °C (dec.)
